B1: library; numbered along this chain (parent)
chain: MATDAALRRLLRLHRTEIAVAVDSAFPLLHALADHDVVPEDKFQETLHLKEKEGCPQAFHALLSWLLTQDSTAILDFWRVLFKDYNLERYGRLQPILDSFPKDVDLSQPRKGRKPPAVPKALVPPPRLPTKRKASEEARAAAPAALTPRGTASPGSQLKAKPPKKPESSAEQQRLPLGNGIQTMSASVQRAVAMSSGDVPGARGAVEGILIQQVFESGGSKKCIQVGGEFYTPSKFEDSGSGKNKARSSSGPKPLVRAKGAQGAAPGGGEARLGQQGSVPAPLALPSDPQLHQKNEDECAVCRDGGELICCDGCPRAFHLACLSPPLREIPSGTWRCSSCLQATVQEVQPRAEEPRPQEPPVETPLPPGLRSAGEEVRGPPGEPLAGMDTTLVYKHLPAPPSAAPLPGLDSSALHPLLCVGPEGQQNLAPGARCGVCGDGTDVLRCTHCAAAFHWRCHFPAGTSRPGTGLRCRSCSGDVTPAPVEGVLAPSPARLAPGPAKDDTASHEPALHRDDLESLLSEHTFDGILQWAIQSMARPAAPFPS

Variants of: B1
Protocol Description: AIRE transcriptional activation functional score (insulin promoter-GFP; nonsense median 0, synonymous median 1) (normalised score); higher = higher AIRE activity (more reporter activation)
Condition Notes: with insulin promoter-GFP reporter in HEK293
Threshold rule: AIRE transcriptional activation functional score greater than or equal to 0.7 is y; below that, n.

Answered examples (4):
L10C n
S187A y
A450C y
K102S y

Decide: AIRE transcriptional activation functional score of T147D >= 0.7?
y

Decide: AIRE transcriptional activation functional score of L516G >= 0.7?
n

Decide: AIRE transcriptional activation functional score of L210Q >= 0.7?
n
